Biological target: Interstitial collagenase (Homo sapiens, UniProt P03956)
Sequence (P03956 whole entry): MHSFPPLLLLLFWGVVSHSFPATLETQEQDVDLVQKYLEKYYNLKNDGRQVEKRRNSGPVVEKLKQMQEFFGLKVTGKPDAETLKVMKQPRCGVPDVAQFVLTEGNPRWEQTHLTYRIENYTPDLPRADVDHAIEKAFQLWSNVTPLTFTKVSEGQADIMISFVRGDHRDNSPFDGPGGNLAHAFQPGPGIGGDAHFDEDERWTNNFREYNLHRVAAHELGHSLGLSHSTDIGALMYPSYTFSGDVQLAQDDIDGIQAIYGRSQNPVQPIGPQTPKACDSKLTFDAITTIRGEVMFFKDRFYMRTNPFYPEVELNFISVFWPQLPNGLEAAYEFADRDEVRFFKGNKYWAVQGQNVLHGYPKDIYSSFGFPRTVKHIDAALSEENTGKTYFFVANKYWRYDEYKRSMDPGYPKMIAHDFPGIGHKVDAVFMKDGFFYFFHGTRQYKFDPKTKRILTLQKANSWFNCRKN
measurement_type: Kd (µM)

[[record]]
smiles_str = "COc1c(-c2ccc(O)c(O)c2)oc2cc(O)cc(O)c2c1=O"
measurement_type = "Kd"
unit_text = "µM"
number = 21.7

